Target: T1, recombinant sCD4 comprising the full-length extracellular domain of human CD4 (human, UniProt P01730 26-396)
T1 construct: also called human soluble CD4; human sCD4 protein
Test: SPR (Biacore), antibody amine-coupled on the chip, human sCD4 as analyte, 25 C, 1:1 Langmuir fit
Description: Binding affinity analyses were performed with a Biacore T3000 optical biosensor (GE Healthcare, Piscataway, N.J.). Immobilization of ibalizumab and all the glycan variants were performed following the standard amine coupling procedure. […] We next evaluated the kinetics of binding of these ibalizumab LMs to human soluble CD4 (sCD4) by surface plasmon resonance. […]
Label MET when Kd < 0.3 nM; otherwise NOT MET.

Threshold test, Kd < 0.3 nM: LM60, ibalizumab light chain mutant with an N-linked glycosylation site at position 60 (antibody, human IgG1, kappa, V domains shown) VH: QVQLQQSGPEVVKPGASVKMSCKASGYTFTSYVIHWVRQKPGQGLDWIGYINPYNDGTDYDEKFKGKATLTSDTSTSTAYMELSSLRSEDTAVYYCAREKDNYATGAWFAYWGQGTLVTVSS VL: DIVMTQSPDSLAVSLGERVTMNCKSSQSLLYSTNQKNYLAWYQQKPGQSPKLLIYWASTRESGVPNATSGSGSGTDFTLTISSVQAEDVAVYYCQQYYSYRTFGGGTKLEIKR
MET

Bench note: check whether LM53, ibalizumab light chain mutant with an N-linked glycosylation site at position 53 (antibody, human IgG1, kappa, V domains shown) VH: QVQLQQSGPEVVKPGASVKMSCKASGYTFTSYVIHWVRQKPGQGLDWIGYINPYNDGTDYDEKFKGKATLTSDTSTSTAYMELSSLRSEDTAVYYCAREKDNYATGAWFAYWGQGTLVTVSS VL: DIVMTQSPDSLAVSLGERVTMNCKSSQSLLYSTNQKNYLAWYQQKPGQSPKLLIYWASNATSGVPDRFSGSGSGTDFTLTISSVQAEDVAVYYCQQYYSYRTFGGGTKLEIKR shows Kd below 0.3 nM
NOT MET

Does this binder meet the criterion Kd < 0.3 nM? LM52, glycan-modified anti-CD4 IgG1 antibody with an N-linked glycan at light chain position 52 (antibody, V domains shown) VH: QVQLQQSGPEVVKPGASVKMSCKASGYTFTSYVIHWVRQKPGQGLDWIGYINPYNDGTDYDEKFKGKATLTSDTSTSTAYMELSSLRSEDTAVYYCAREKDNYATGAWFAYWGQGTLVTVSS VL: DIVMTQSPDSLAVSLGERVTMNCKSSQSLLYSTNQKNYLAWYQQKPGQSPKLLIYWANSTESGVPDRFSGSGSGTDFTLTISSVQAEDVAVYYCQQYYSYRTFGGGTKLEIKR
NOT MET

Find out if reported Kd for LM76, ibalizumab light chain mutant with an N-linked glycosylation site at position 76 (antibody, human IgG1, kappa, V domains shown) VH: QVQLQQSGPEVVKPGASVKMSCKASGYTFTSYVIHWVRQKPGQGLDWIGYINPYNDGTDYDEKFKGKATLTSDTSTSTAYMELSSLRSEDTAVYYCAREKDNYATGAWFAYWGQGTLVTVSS VL: DIVMTQSPDSLAVSLGERVTMNCKSSQSLLYSTNQKNYLAWYQQKPGQSPKLLIYWASTRESGVPDRFSGSGSGTDFTLTINATQAEDVAVYYCQQYYSYRTFGGGTKLEIKR is less than 0.3 nM
MET

I wonder whether LM67, ibalizumab light chain mutant with an N-linked glycosylation site at position 67 (antibody, human IgG1, kappa, V domains shown) VH: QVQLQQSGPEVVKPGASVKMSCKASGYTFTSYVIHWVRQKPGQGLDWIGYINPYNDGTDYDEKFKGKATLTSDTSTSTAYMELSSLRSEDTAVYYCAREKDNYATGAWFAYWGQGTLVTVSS VL: DIVMTQSPDSLAVSLGERVTMNCKSSQSLLYSTNQKNYLAWYQQKPGQSPKLLIYWASTRESGVPDRFSGSGNATDFTLTISSVQAEDVAVYYCQQYYSYRTFGGGTKLEIKR has Kd below 0.3 nM. Can you tell?
NOT MET
